- MEASURED TARGET: IRAK4 (Homo sapiens (Human), UniProt Q9NWZ3)
- Sequence (Q9NWZ3 whole entry, species assumed): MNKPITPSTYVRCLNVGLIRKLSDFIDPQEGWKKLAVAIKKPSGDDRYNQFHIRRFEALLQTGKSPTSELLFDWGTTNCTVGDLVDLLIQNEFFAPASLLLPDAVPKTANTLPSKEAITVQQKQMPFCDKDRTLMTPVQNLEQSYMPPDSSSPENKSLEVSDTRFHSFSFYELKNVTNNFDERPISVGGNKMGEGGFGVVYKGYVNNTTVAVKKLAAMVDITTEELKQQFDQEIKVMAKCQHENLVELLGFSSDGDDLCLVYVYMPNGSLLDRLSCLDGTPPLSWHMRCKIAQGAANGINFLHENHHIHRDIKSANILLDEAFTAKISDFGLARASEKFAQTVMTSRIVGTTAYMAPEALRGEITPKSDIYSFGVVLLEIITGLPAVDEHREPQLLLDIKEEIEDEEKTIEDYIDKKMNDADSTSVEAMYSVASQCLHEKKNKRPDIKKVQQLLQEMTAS
- EXPERIMENT: IRAK4 Inhibition Assay
- Assay type: biochemical
- TEST CONDITIONS: ATP 500 μM; IRAK4 0.6 nM; 60 min at room temperature; read-out: IRAK4 IC50
- Procedure: IRAK4 Inhibition Assay The assays were performed in U-bottom 384-well plates. […] The reaction was initiated by the combination of IRAK4 with substrates and test compounds. The reaction mixture was incubated at room temperature for 60 min. and terminated by adding 45 μL of 35 mM EDTA to each sample.
pIC50: −log10 of the molar value.
REPORTED PROPERTY: pIC50

CCNc1cc(Nc2ccc(C#N)cn2)ncc1C(=O)NC[C@@H](F)C(C)(C)O [Example 4] ... 7.99
CC(C)(O)[C@H](F)CNC(=O)c1cnc(Nc2ncc(C#N)cc2F)cc1NC1CCCOC1 (stereo partly shown) [Example 97] ... 8.28

(P) CC(C)Nc1cc(Nc2ncc(C#N)cc2F)ncc1C(=O)NC1CCC(O)(c2nccs2)CC1 (stereo not shown) [Example 167]
(Q) CC(C)Nc1cc(Nc2ncc(C#N)cc2F)ncc1C(=O)N[C@H]1CC[C@H](C(=O)NC2CC2)CC1 [Example 118]
P or Q : whose pIC50 is greater? Identify your selection by its label. Q

These entries and their values trace back to patent US9657009B2.
